# measuredOn: T1, USP8 Rhod (174–317) (human, UniProt P40818 174-317)
# T1 construct: Ubiquitin carboxyl-terminal hydrolase 8 (USP8), human, UniProt P40818, rhodanese domain, residues 174-317; Construct in the pETM33 vector, synthesized by GenScript; also called USP8_Rhodanese; USP8 rhodanese domain; source: E. coli BL21-Gold (DE3), purified (GSH sepharose)
# T1 sequence (looked up): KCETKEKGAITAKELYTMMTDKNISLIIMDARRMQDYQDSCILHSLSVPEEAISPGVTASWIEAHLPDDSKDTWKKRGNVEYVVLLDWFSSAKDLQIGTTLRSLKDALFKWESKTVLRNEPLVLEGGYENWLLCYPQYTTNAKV
# assaySummary: fluorescence polarisation; direct binding: constant concentration of FITC-labeled peptide, increasing concentration of the protein; 50 mM sodium phosphate buffer pH 7.4, 1 mM DTT; KD from a fit to a quadratic equation
# statedConditions: both partners purified
Ends that are not written are not given here. * marks the point of attachment. FITC = O=C1OC2(c3ccc(O)cc3Oc3cc(O)ccc32)c2ccc(NC(=S)*)cc21
measuredProperty: pKd
As a rule, pKd stands for the negative log10 of the concentration, concentration in M.

# pKd lookup, item {FITC}-GLALWEAKMKQLAERA (also called probe peptide; source: synthetic peptide, bought: GeneCust (France), > 95% purity) [FITC-TET3 1705-1720 peptide (Methylcytosine dioxygenase TET3)]
6.15
